tested system: CFTR-mediated chloride transport (Homo sapiens)
Sequence (P13569 whole entry, looked up): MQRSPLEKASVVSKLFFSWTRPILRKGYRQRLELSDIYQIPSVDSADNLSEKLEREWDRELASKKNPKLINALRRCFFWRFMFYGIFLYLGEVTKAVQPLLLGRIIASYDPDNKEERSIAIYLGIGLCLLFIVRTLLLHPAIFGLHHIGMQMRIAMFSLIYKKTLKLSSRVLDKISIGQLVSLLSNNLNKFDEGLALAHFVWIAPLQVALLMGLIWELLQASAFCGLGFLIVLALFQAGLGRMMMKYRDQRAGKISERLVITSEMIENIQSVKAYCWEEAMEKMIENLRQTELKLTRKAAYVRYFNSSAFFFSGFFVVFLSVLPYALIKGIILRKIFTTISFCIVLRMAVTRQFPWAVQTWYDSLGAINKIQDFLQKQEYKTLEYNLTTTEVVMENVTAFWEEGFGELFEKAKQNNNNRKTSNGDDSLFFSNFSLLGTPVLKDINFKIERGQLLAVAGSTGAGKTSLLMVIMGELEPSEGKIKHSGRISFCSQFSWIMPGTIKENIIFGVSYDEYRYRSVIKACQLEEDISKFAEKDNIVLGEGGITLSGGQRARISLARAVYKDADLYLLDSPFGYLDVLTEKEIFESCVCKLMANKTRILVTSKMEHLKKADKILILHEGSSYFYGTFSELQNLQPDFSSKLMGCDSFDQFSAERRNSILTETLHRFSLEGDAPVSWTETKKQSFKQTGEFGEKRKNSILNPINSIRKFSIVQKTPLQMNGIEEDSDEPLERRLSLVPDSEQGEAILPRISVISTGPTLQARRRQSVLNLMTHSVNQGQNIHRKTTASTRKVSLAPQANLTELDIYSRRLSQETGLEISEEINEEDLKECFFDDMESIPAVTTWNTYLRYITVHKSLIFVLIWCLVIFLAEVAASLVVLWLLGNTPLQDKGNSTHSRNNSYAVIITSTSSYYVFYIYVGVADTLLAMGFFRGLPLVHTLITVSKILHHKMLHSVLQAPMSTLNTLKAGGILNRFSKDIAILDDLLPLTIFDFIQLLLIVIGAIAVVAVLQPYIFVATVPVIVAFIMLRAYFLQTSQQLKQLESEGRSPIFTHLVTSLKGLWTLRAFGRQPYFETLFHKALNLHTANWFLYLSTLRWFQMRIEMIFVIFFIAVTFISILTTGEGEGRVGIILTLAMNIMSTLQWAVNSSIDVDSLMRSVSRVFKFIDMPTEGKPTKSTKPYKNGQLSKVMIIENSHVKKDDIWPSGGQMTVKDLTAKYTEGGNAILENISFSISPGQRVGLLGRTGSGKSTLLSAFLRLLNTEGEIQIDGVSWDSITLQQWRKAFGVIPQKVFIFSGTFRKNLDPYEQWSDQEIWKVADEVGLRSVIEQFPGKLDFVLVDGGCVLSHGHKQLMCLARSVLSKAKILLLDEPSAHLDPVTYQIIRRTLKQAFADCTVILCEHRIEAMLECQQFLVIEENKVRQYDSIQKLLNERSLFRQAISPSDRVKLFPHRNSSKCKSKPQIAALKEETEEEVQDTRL
Type: cell-based
measurement conditions: enteroid cells incubated with test compound 18-24 hours; acute 10 μM forskolin and 300 nM Compound III; % of chloride transport with 3 μM Compound A, 3 μM Compound II and 300 nM acute Compound III triple combination control
experimental endpoint: Max. Activity

[
  {
    "compound": "CC1(C)C[C@@H]2CCCNc3ccc(O)c(n3)S(=O)(=O)NC(=O)c3ccc(-n4ccc(OCCC5C6(CC6)C56CC6)n4)nc3N1C2",
    "recorded result": "+++ (+++ is >60%)"
  },
  {
    "compound": "CC(C)(C)CC[C@H]1CCN(c2ccc3c(n2)N2C[C@@H](CCCNc4cccc(n4)S(=O)(=O)NC3=O)CC2(C)C)C1=O (single isomer, unassigned) [Compound 126]",
    "recorded result": "++ (++ is 30-60%)"
  },
  {
    "compound": "CC1(C)C[C@H]2CCCNc3cccc(n3)S(=O)(=O)NC(=O)c3ccc(-n4ccc(OCCC(C5CC5)C5CC5)n4)nc3N1C2",
    "recorded result": "++ (++ is 30-60%)"
  },
  {
    "compound": "CC1(C)CC2CCCNc3cccc(n3)S(=O)(=O)NC(=O)c3ccc(-n4ccc(OCC5C6(CC6)C56CC6)n4)nc3N1C2 (racemic)",
    "recorded result": "+++ (+++ is >60%)"
  },
  {
    "compound": "CC1(C)C[C@@H]2CCCNc3cccc(n3)S(=O)(=O)NC(=O)c3ccc(N4CCC(OCCC(C)(C)C(F)(F)F)C4=O)nc3N1C2 (some centres unmarked)",
    "recorded result": "+++ (+++ is >60%)"
  }
]

Query string: Given the compound CN1CCC[C@H]2CN(c3nc(-n4ccc(OCCC(C5CC5)C5CC5)n4)ccc3C(=O)NS(=O)(=O)c3cccc1n3)C(C)(C)C2 (single isomer, unassigned) [Compound 203] , what is its reported Max. Activity?
Result string: +++ (+++ is >60%)

Query string: What Max. Activity value was documented for this compound, CC1(C)C[C@H]2CCCCCNc3cccc(n3)S(=O)(=O)NC(=O)c3ccc(-n4ccc(OCCC5(C(F)(F)F)CC5)n4)nc3N1C2 (single isomer, unassigned) [Compound 64] ?
Result string: ++ (++ is 30-60%)

Query string: I would be grateful if you could share the reported Max. Activity for Cc1c2cnn1CCC[C@@H]1CN(c3nc(-n4ccc(OCCC5(C(F)(F)F)CC5)n4)ccc3C(=O)NS2(=O)=O)C(C)(C)C1 (single isomer, unassigned) [Compound 111] .
Result string: +++ (+++ is >60%)

Query string: What measured Max. Activity goes with `CC(C)(C)CCCN1CCN(c2ccc3c(n2)N2C[C@@H](CCCNc4cccc(n4)S(=O)(=O)NC3=O)CC2(C)C)C1=O` ?
Result string: +++ (+++ is >60%)

Query string: Dear colleague, I am looking for the recorded Max. Activity of the following compound: CC(C)(C)CCC1C(=O)N(c2ccc3c(n2)N2C[C@@H](CCCNc4cccc(n4)S(=O)(=O)NC3=O)CC2(C)C)CC1(C)C (some centres unmarked)
Result string: ++ (++ is 30-60%)

----------
tested system: UniProtKB P13569
Format: cell-based
measurement conditions: enteroid cells incubated with test compound 18-24 hours; acute 10 μM forskolin and 300 nM Compound III; % of chloride transport with 3 μM Compound A, 3 μM Compound II and 300 nM acute Compound III triple combination control
experimental endpoint: Max. Activity

Here is how some molecules turned out for Max. Activity.
[
  {
    "molecule": "CC1(C)CCC2CCCOc3cccc(n3)S(=O)(=O)NC(=O)c3ccc(-n4ccc(OCCC5(C(F)(F)F)CC5)n4)nc3N21 (stereo not drawn) [Compound 147]",
    "Max. Activity": "++ (++ is 30-60%)"
  },
  {
    "molecule": "CC1(C)CC2CCCOc3ccc(cn3)S(=O)(=O)NC(=O)c3ccc(-n4ccc(OCCC5(C(F)(F)F)CC5)n4)nc3N1C2 (stereo not drawn) [Compound 90]",
    "Max. Activity": "++ (++ is 30-60%)"
  },
  {
    "molecule": "CC1(C)C[C@@H]2CCCNc3cccc(n3)S(=O)(=O)NC(=O)c3ccc(N4CCN(CCC(C)(C)C(F)(F)F)C4=O)nc3N1C2 [Compound 223]",
    "Max. Activity": "+++ (+++ is >60%)"
  },
  {
    "molecule": "CC(C)C(COc1ccn(-c2ccc3c(n2)N2CC(CCCNc4cccc(n4)S(=O)(=O)NC3=O)CC2(C)C)n1)C(C)C (stereo not drawn) [Compound 220]",
    "Max. Activity": "+++ (+++ is >60%)"
  },
  {
    "molecule": "Cc1ccc2nc1NCCC[C@H]1CN(c3nc(-n4ccc(OCCC5(C(F)(F)F)CC5)n4)ccc3C(=O)NS2(=O)=O)C(C)(C)C1 (single isomer, unassigned) [Compound 115]",
    "Max. Activity": "+++ (+++ is >60%)"
  },
  {
    "molecule": "CC1(C)C[C@@H]2CCCNc3cccc(n3)S(=O)(=O)NC(=O)c3ccc(-n4ccc(OCCC(O)C5(C(F)(F)F)CC5)n4)nc3N1C2 (stereo partly drawn) [Compound 295]",
    "Max. Activity": "++ (++ is 30-60%)"
  },
  {
    "molecule": "CC1(C)C[C@H]2CCCNc3cccc(n3)S(=O)(=O)NC(=O)c3ccc(-n4ccc(OCC5C6(CC6)C56CC6)n4)nc3N1C2 (single isomer, unassigned) [Compound 106]",
    "Max. Activity": "+++ (+++ is >60%)"
  },
  {
    "molecule": "CC1(C)C[C@@H]2CCCNc3cccc(n3)S(=O)(=O)NC(=O)c3ccc(-n4ccc(OCCC(C5CCC5)C5CCC5)n4)nc3N1C2 [Compound 231]",
    "Max. Activity": "+++ (+++ is >60%)"
  }
]

Query string: Please report the recorded Max. Activity for CC1(C)C[C@H]2CCCCNc3ccc(cn3)S(=O)(=O)NC(=O)c3ccc(-n4ccc(OCCC5(C(F)(F)F)CC5)n4)nc3N1C2 (single isomer, unassigned) [Compound 67] .
Result string: +++ (+++ is >60%)

Query string: GET /values?readout=Max. Activity&item= CC1(C)C[C@H]2CCCCn3ccc(n3)S(=O)(=O)NC(=O)c3ccc(-n4ccc(OCCC5(C(F)(F)F)CC5)n4)nc3N1C2 (single isomer, unassigned) [Compound 45]
Result string: +++ (+++ is >60%)

Query string: Which Max. Activity is reported for this molecule? CC(C)C(COc1ccn(-c2ccc3c(n2)N2C[C@@H](CCCNc4cccc(n4)S(=O)(=O)NC3=O)CC2(C)C)n1)C(C)C [Compound 227]
Result string: +++ (+++ is >60%)

Query string: Query: Max. Activity; subject: CN1CCCC2CCC(C)(C)N2c2nc(-n3ccc(OCCC4(C(F)(F)F)CC4)n3)ccc2C(=O)NS(=O)(=O)c2cccc1n2 (racemic) [Compound 9]
Result string: ++ (++ is 30-60%)

----------
tested system: CFTR-mediated chloride transport (Homo sapiens)
measurement conditions: enteroid cells incubated with test compound 18-24 hours; acute 10 μM forskolin and 300 nM Compound III
pEC50: −log10 of the molar value.
Known pEC50 of a selection of compounds

In the examples that follow, each entry is paired with its recorded pEC50.
[
  {
    "compound": "Cc1ccc2nc1NCCC[C@H]1CN(c3nc(-n4ccc(OCCC5(C(F)(F)F)CC5)n4)ccc3C(=O)NS2(=O)=O)C(C)(C)C1 (single isomer, unassigned) [Compound 115]",
    "recorded result": "> 6.00"
  },
  {
    "compound": "CC1(C)C[C@@H]2CN1c1nc(-n3ccc(OCCCC4(C(F)(F)F)CC4)n3)ccc1C(=O)NS(=O)(=O)c1cccc(n1)NCCO2 (single isomer, unassigned) [Compound 159]",
    "recorded result": "< 5.52"
  },
  {
    "compound": "CC1(C)CC2CCCCc3ccc(cc3)S(=O)(=O)NC(=O)c3ccc(-n4ccc(OCCC5(C(F)(F)F)CC5)n4)nc3N1C2 (centres unmarked)",
    "recorded result": "> 6.00"
  },
  {
    "compound": "CC1(C)C[C@@H]2CCCNc3cccc(n3)S(=O)(=O)NC(=O)c3ccc(N4CC[C@H](OCCC5C6(CC6)C56CC6)C4=O)nc3N1C2 (single isomer, unassigned) [Compound 179]",
    "recorded result": "> 6.00"
  }
]

Moving on to another compound below.
Query string: State the recorded pEC50 for this entry: CC1(C)CC2CCCCCc3ccc(cn3)S(=O)(=O)NC(=O)c3ccc(-n4ccc(OCCC5(C(F)(F)F)CC5)n4)nc3N1C2 (centres unmarked)
Result string: > 6.00
